- PROTOCOL_DESCRIPTION: Preliminary pharmacokinetic analysis in SD rats
- TEST_PARAMETERS: male, Sprague-Dawley, rat, blood, ip, 100 mg/kg
Non-standard residues stand in square brackets, D forms with d. Residues, ends and D or L forms follow the SMILES beside them. pS = N[C@@H](COP(=O)(O)O)C(=O)O
READOUT_LABEL: level at 1 h

[[record]]
compound = "CC(=O)N[C@@H](Cc1ccccc1)C(=O)N1CCC[C@H]1C(=O)NCC(=O)N[C@@H](COP(=O)(O)O)C(=O)N[C@@H](CC(=O)O)C(=O)N[C@@H](CCCNC(=N)N)C(=O)N[C@@H](Cc1ccccc1)C(=O)NCC(=O)NCC(=O)NCC(=O)NCC(=O)N[C@@H](CCCNC(=N)N)C(=O)NCC(=O)N[C@@H](CC(=O)O)C(N)=O [JP1] (Ac-FPG[pS]DRFGGGGRGD-NH2)"
readout_label = "level at 1 h"
obs_value = "13800 ng/mL"


---

- PROTOCOL_DESCRIPTION: LD50 in mouse
- TEST_PARAMETERS: in vivo
Non-standard residues stand in square brackets, D forms with d. Residues, ends and D or L forms follow the SMILES beside them. pS = N[C@@H](COP(=O)(O)O)C(=O)O
READOUT_LABEL: LD50

[[record]]
compound = "CC(=O)N[C@@H](Cc1ccccc1)C(=O)N1CCC[C@H]1C(=O)NCC(=O)N[C@@H](COP(=O)(O)O)C(=O)N[C@@H](CC(=O)O)C(=O)N[C@@H](CCCNC(=N)N)C(=O)N[C@@H](Cc1ccccc1)C(=O)NCC(=O)NCC(=O)NCC(=O)NCC(=O)N[C@@H](CCCNC(=N)N)C(=O)NCC(=O)N[C@@H](CC(=O)O)C(N)=O [JP1] (Ac-FPG[pS]DRFGGGGRGD-NH2)"
readout_label = "LD50"
obs_value = "> 5000 mg/kg"


---

- PROTOCOL_DESCRIPTION: in vivo
- TEST_PARAMETERS: male, Sprague-Dawley, rat, ip, 100 mg/kg, half-life (t1/2)
Non-standard residues stand in square brackets, D forms with d. Residues, ends and D or L forms follow the SMILES beside them. pS = N[C@@H](COP(=O)(O)O)C(=O)O
READOUT_LABEL: half-life

[[record]]
compound = "CC(=O)N[C@@H](Cc1ccccc1)C(=O)N1CCC[C@H]1C(=O)NCC(=O)N[C@@H](COP(=O)(O)O)C(=O)N[C@@H](CC(=O)O)C(=O)N[C@@H](CCCNC(=N)N)C(=O)N[C@@H](Cc1ccccc1)C(=O)NCC(=O)NCC(=O)NCC(=O)NCC(=O)N[C@@H](CCCNC(=N)N)C(=O)NCC(=O)N[C@@H](CC(=O)O)C(N)=O [JP1] (Ac-FPG[pS]DRFGGGGRGD-NH2)"
readout_label = "half-life"
obs_value = "~1.32 h"


---

- PROTOCOL_DESCRIPTION: 14-day cynomolgus monkey toxicity test (overall)
- Format: in vivo
- TEST_PARAMETERS: both sexes, in vivo, iv, 14 days, read-out: no observed adverse effect level (NOAEL)
Non-standard residues stand in square brackets, D forms with d. Residues, ends and D or L forms follow the SMILES beside them. pS = N[C@@H](COP(=O)(O)O)C(=O)O
READOUT_LABEL: NOAEL at 14 days (mg/kg)

[[record]]
compound = "CC(=O)N[C@@H](Cc1ccccc1)C(=O)N1CCC[C@H]1C(=O)NCC(=O)N[C@@H](COP(=O)(O)O)C(=O)N[C@@H](CC(=O)O)C(=O)N[C@@H](CCCNC(=N)N)C(=O)N[C@@H](Cc1ccccc1)C(=O)NCC(=O)NCC(=O)NCC(=O)NCC(=O)N[C@@H](CCCNC(=N)N)C(=O)NCC(=O)N[C@@H](CC(=O)O)C(N)=O [JP1] (Ac-FPG[pS]DRFGGGGRGD-NH2)"
readout_label = "NOAEL at 14 days"
obs_value = 150


Source: paper PMC7381750
